# SUBJECT_OF_TEST: CB1 receptor (Rattus norvegicus, UniProt P20272)
# Construct: from tissue; host or cells: rat whole brain, P2 membranes
# Sequence (P20272 whole entry): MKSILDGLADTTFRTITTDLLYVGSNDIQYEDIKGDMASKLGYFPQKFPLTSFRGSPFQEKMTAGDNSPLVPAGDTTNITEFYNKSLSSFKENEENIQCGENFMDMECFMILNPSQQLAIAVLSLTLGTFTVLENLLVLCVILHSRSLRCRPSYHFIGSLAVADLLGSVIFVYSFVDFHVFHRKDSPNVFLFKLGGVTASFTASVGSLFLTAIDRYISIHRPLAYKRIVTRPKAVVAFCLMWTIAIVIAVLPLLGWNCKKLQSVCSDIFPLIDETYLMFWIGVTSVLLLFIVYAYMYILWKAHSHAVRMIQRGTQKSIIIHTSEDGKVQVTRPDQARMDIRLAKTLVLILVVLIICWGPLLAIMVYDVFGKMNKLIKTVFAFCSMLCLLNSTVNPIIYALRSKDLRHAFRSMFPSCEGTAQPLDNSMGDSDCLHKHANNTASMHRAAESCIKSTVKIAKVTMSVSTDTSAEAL
# METHOD: CB1 assay: displacement of [3H]CP-55,940 from rat brain membrane preparation
# Type: binding
Measured pKi by item
Reminder that pKi is minus the log10 of a molar concentration.

**Q:** Give the measured pKi of CCCCC(C)(C)c1cc(OC)c2c(c1)OC(C)(C)[C@@H]1CC=C(CO)C[C@@H]21 [Compound 11d] .
**A:** 7.40

**Q:** Moving on to CCCCC(C)(C)c1cc(OC)c2c(c1)OC(C)(C)[C@@H]1CC=C(C)C[C@@H]21
**A:** 5.40

**Q:** Moving on to CCCC(C)(C)c1ccc2c(c1)OC(C)(C)[C@@H]1CC=C(CO)C[C@@H]21
**A:** 7.08

**Q:** Moving on to CCCCCCC(C)(C)c1cc(OC)c2c(c1)OC(C)(C)[C@@H]1CC=C(CO)C[C@@H]21 [Compound 11f]
**A:** 7.85

====

# SUBJECT_OF_TEST: CB1 receptor (Rattus norvegicus)
# Construct: from tissue; host or cells: rat whole brain, P2 membranes
# METHOD: CB1 assay: displacement of [3H]CP-55,940 from rat brain membrane preparation
# Type: binding
# ASSAY_CONDITIONS: Table 2; mean ± SEM; 3-(alkyl-1-naphthoyl)indoles; read-out: Ki CB1
Measured pKi by item
Reminder that pKi is minus the log10 of a molar concentration.

See these solved cases before continuing.
>  <MOLECULE>
CCCc1ccc(C(=O)c2cn(CCC)c3ccccc23)c2ccccc12 [JWH-180, 1-Propyl-3-(4-propyl-1-naphthoyl)indole]

>  <SUBJECT_OF_TEST>
CB1 receptor (Rattus norvegicus)

>  <pKi>
7.59

$$$$
>  <MOLECULE>
CCCCCn1c(C)c(C(=O)c2ccc(CCC)c3ccccc23)c2ccccc21 [JWH-181]

>  <SUBJECT_OF_TEST>
CB1 receptor (Rattus norvegicus)

>  <pKi>
8.89

$$$$
>  <MOLECULE>
CCCCCn1c(C)c(C(=O)c2ccc(CC)c3ccccc23)c2ccccc21 [JWH-213]

>  <SUBJECT_OF_TEST>
CB1 receptor (Rattus norvegicus)

>  <pKi>
8.82

$$$$

**Q:** Give the measured pKi of CCCCCn1c(C)c(C(=O)c2cccc3ccc(CC)cc23)c2ccccc21 [JWH-262] .
**A:** 7.55

**Q:** Moving on to CCCn1cc(C(=O)c2ccc(CC)c3ccccc23)c2ccccc21 [JWH-212, 1-Propyl-3-(4-ethyl-1-naphthoyl)indole]
**A:** 7.48

**Q:** Moving on to CCCc1ccc(C(=O)c2c(C)n(CCC)c3ccccc23)c2ccccc12 [JWH-189]
**A:** 7.28

**Q:** Moving on to CCCCCn1cc(C(=O)c2ccc(CCC)c3ccccc23)c2ccccc21 [JWH-182, 1-Pentyl-3-(4-propyl-1-naphthoyl)indole]
**A:** 9.19

====

# SUBJECT_OF_TEST: CB2 receptor (Homo sapiens, UniProt P34972)
# Sequence (P34972 whole entry): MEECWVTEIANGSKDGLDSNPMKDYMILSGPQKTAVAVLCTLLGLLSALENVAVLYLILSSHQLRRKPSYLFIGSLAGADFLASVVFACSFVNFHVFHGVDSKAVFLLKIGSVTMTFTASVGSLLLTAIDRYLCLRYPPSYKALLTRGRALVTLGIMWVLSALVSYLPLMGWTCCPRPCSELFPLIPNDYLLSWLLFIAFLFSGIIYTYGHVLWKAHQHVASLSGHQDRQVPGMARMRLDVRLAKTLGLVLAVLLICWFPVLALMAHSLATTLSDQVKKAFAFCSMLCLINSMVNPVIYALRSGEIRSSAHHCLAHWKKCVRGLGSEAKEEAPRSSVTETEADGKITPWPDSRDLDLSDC
# METHOD: CB2 assay: displacement of [3H]CP-55,940 from cloned human CB2 receptor preparation (transfected HEK 293 cells)
# Type: binding
# Design: expressed in transfected cells
# ASSAY_CONDITIONS: Ki at CB2 receptor; cloned human CB2
Measured pKi by item
Reminder that pKi is minus the log10 of a molar concentration.

>  <COMPOUND>
CCCC(C)(C)c1cc(OC)c2c(c1)OC(C)(C)[C@@H]1CC=C(C)C[C@@H]21 [Compound 6c]

>  <SUBJECT_OF_TEST>
CB2 receptor (Homo sapiens, UniProt P34972)

>  <REPORTED_PROPERTY>
pKi

>  <EXPERIMENTAL_RESULT>
5.73

$$$$
>  <COMPOUND>
CCCn1c(C)c(C(=O)c2c(OC)ccc3ccccc23)c2ccccc21 [JWH-266]

>  <SUBJECT_OF_TEST>
CB2 receptor (Homo sapiens, UniProt P34972)

>  <REPORTED_PROPERTY>
pKi

>  <EXPERIMENTAL_RESULT>
6.34

$$$$
>  <COMPOUND>
CCCCC(C)(C)c1cc(OC)c2c(c1)OC(C)(C)[C@@H]1CC=C(CO)C[C@@H]21 [Compound 11d]

>  <SUBJECT_OF_TEST>
CB2 receptor (Homo sapiens, UniProt P34972)

>  <REPORTED_PROPERTY>
pKi

>  <EXPERIMENTAL_RESULT>
7.40

$$$$
>  <COMPOUND>
CCC(C)(C)c1ccc2c(c1)OC(C)(C)[C@@H]1CC=C(CO)C[C@@H]21 [Compound 9b]

>  <SUBJECT_OF_TEST>
CB2 receptor (Homo sapiens, UniProt P34972)

>  <REPORTED_PROPERTY>
pKi

>  <EXPERIMENTAL_RESULT>
8.25

$$$$
>  <COMPOUND>
COc1cc(C(C)(C)C)cc2c1[C@@H]1CC(CO)=CC[C@H]1C(C)(C)O2 [Compound 11a]

>  <SUBJECT_OF_TEST>
CB2 receptor (Homo sapiens, UniProt P34972)

>  <REPORTED_PROPERTY>
pKi

>  <EXPERIMENTAL_RESULT>
6.48

$$$$

**Q:** Give the measured pKi of CCCCCn1cc(C(=O)c2c(OC)ccc3ccccc23)c2ccccc21 [JWH-267, 1-Pentyl-3-(2-methoxy-1-naphthoyl)indole] .
**A:** 8.13

**Q:** Moving on to CCCCCCC(C)(C)c1cc(OC)c2c(c1)OC(C)(C)[C@@H]1CC=C(C)C[C@@H]21 [Compound 4, reference compound]
**A:** 7.24
